Numbers sourced from patent US11999727B2.

Target: PRMT5 (Homo sapiens, UniProt O14744)
Construct: purchased Viva (custom protein)
Sequence (O14744 whole entry): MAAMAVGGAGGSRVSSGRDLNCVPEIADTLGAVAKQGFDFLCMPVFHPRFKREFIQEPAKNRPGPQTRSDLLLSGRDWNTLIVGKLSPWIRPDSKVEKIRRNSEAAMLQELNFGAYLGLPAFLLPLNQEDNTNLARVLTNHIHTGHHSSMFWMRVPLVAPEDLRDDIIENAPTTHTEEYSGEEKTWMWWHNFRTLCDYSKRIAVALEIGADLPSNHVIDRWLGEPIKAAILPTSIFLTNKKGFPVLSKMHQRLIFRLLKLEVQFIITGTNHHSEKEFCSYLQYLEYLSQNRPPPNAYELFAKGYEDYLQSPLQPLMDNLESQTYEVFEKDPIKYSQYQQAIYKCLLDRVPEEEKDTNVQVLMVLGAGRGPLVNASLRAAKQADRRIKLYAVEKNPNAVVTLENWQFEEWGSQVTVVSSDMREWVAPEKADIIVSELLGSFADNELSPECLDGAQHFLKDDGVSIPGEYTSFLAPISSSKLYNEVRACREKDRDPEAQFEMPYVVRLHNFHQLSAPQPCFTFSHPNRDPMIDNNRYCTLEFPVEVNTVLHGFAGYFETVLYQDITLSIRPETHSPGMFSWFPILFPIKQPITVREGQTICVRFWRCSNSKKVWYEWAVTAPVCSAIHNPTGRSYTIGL
Sequence (Q9BQA1 whole entry partner): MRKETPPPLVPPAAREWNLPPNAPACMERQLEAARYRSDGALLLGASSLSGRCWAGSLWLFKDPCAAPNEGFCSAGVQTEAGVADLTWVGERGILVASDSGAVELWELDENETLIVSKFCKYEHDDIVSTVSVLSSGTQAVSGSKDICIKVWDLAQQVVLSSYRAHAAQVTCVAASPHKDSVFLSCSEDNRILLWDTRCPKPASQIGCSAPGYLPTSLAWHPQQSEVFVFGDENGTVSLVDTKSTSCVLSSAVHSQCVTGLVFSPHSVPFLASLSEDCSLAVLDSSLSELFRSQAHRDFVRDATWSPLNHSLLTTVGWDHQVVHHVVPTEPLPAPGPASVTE
Assay: PRMT5 biochemical IC50 assay with SAM as cofactor
Settings: PRMT5, SAM as cofactor; read-out: SAM IC50
pIC50: −log10 of the molar value.
Recorded Endpoint: pIC50

INSERT INTO results (molecule, observed) VALUES
  ('Cc1cc(NC(=O)C(=O)N2C[C@H](C)CC[C@H]2c2ccncc2)cnc1N (single isomer, unassigned)', '6.30 to 7.30'),
  ('CNc1nc2cc([C@@H]3CC[C@@H](C)CN3C(=O)C(=O)Nc3cnc(OC)c(C(N)=O)c3)ccc2s1 (single isomer, unassigned)', '< 6.30'),
  ('C[C@@H]1CN(C(=O)C(=O)Nc2cnc(N)c(C3CC3)c2)[C@@H](c2ccc3scnc3c2)CC1(F)F (single isomer, unassigned)', '< 6.30'),
  ('CCc1cc(NC(=O)C(=O)N2C[C@@H](C)CC[C@@H]2c2ccc3sc(C4CCN(CCF)CC4)nc3c2)cnc1N', '> 7.30'),
  ('Cc1cc(NC(=O)C(=O)N2C[C@H](C)CC[C@H]2c2ccc(C(N)=O)s2)cnc1N (single isomer, unassigned) [Compound 823]', '< 6.30'),
  ('C[C@@H]1CC[C@@H]2CCCC[C@@H]2N1C(=O)C(=O)Nc1cncc(C(N)=O)c1 (single isomer, unassigned)', '< 6.30');
